assay: Stability of markers in solution at room temperature, followed by peak retention time on chromatography; type: physicochemical; details: solution at room temperature, 0.1 mg/ml; 4th of four analyses at 8 hour intervals
Each entry below carries its recorded Peak Retention Time.
Response body: numeric value in min, unit text excluded.

Entry TV-109: 109-mer sequence-defined polypeptide molecular weight marker, molecular weight = 11727 daltons (peptide) AKKYAKKAEKAYAKKAKAAKEKKAYAKKEAKAYKAAEAKKKAKAEAKKYAKEAAKAKKEAYKAEAKKYAKAAKAEKKEYAAAEAKKAEAAKAYKAEAAKAAAKEAAYEA , Peak Retention Time reported as 24.850

Entry TV-86: 86-mer sequence-defined polypeptide molecular weight marker of Ala, Glu, Tyr, Lys, molecular weight = 9220 daltons (peptide) AKKYAKKEKAYAKKAEKAAKKAEAKAYKAAEAKKKAKAEAKKYAKAAKAEKKEYAAAEAKYKAEAAKKAYKAEAAKAAAKEAAYEA , Peak Retention Time reported as 26.150

Entry TV-66: 66-mer sequence-defined polypeptide molecular weight marker of Ala, Glu, Tyr, Lys, molecular weight = 7040 daltons (peptide) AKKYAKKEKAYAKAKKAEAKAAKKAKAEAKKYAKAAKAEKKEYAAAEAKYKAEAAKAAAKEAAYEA , Peak Retention Time reported as 27.433

Entry TV-77: 77-mer sequence-defined polypeptide molecular weight marker of Ala, Glu, Tyr, Lys, molecular weight = 8259 daltons (peptide) AKKYAKKEKAYAKKAEKAAKKAEAKAYKAAEAKKKAKAEAKKYAKAAKAEKKEYAAAEAKYKAEAAKAAAKEAAYEA , Peak Retention Time reported as 26.783
